# Subject Of Test: UniProtKB P37288
# Method Summary: Cellular in vitro assay for determining vasopressin receptor activity, V1a receptor cell line (photoprotein luminescence)
# Test Settings: CHO cell line transfected with the human V1a receptor; agonist [Arg8]-vasopressin at EC50 concentration; read-out: IC50 hV1a
# IC50 annotations
Measured Quantity: IC50 (pM)

[[record]]
compound = "CC(=O)N1CCN(c2nc(Cn3nc(-c4ccc(Cl)cc4)n(C[C@H](O)C(F)(F)F)c3=O)nn2-c2ccccc2Cl)CC1 [Example 75]"
subject_of_test = "UniProtKB P37288"
unit_abbrev = "pM"
observed_result = 810

[[record]]
compound = "CC(C)(CNc1nc(Cn2nc(-c3ccc(Cl)cc3)n(C[C@H](O)C(F)(F)F)c2=O)nn1-c1ccccc1Cl)C(N)=O [Example 5]"
subject_of_test = "UniProtKB P37288"
unit_abbrev = "pM"
observed_result = 640

[[record]]
compound = "CC(C)(O)CNc1nc(Cn2nc(-c3ccc(Cl)cc3)n(C[C@H](O)C(F)(F)F)c2=O)nn1CCC(F)(F)F [Example 110]"
subject_of_test = "UniProtKB P37288"
unit_abbrev = "pM"
observed_result = 1400

[[record]]
compound = "CC(C)(O)CNc1nc(Cn2nc(-c3ccc(Cl)cc3)n(C[C@H](O)C(F)(F)F)c2=O)nn1-c1ccccc1Cl [Example 82]"
subject_of_test = "UniProtKB P37288"
unit_abbrev = "pM"
observed_result = 860

[[record]]
compound = "O=C1NCC(CNc2nc(Cn3nc(-c4ccc(Cl)cc4)n(C[C@H](O)C(F)(F)F)c3=O)nn2-c2ccccc2Cl)O1 (mixture of isomers) [Example 12]"
subject_of_test = "UniProtKB P37288"
unit_abbrev = "pM"
observed_result = 1200

[[record]]
compound = "O=C1NCCC1Nc1nc(Cn2nc(-c3ccc(Cl)cc3)n(C[C@H](O)C(F)(F)F)c2=O)nn1-c1ccccc1Cl (single isomer, unassigned) [Example 18]"
subject_of_test = "UniProtKB P37288"
unit_abbrev = "pM"
observed_result = 810

[[record]]
compound = "O=C1CN(c2nc(Cn3nc(-c4ccc(Cl)cc4)n(C[C@H](O)C(F)(F)F)c3=O)nn2-c2ncccc2Cl)CCN1 [Example 97]"
subject_of_test = "UniProtKB P37288"
unit_abbrev = "pM"
observed_result = 560

[[record]]
compound = "CC(C)(CF)CNc1nc(Cn2nc(-c3ccc(Cl)cc3)n(C[C@H](O)C(F)(F)F)c2=O)nn1-c1ccccc1Cl [Example 3]"
subject_of_test = "UniProtKB P37288"
unit_abbrev = "pM"
observed_result = 620


* * *

# Subject Of Test: human V1a receptor (Homo sapiens)
# Sequence (P37288 whole entry): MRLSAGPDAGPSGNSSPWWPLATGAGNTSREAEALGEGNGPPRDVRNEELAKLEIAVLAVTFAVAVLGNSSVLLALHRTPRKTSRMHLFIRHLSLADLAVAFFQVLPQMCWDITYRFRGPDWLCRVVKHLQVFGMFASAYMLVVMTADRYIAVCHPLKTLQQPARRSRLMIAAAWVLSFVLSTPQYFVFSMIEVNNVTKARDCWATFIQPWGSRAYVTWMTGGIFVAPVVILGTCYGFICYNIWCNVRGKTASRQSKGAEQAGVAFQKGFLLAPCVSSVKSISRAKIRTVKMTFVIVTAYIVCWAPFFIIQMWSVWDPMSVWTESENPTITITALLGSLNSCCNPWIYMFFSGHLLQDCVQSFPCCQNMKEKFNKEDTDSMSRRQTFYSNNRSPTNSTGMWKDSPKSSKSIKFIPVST
# Method Summary: Cellular in vitro assay for determining vasopressin receptor activity, V1a receptor cell line (photoprotein luminescence)
# Type: cell-based
# Test Settings: selectivity ratio of the cellular IC50 values
Measured Quantity: ratio IC50 hV2/hV1a

[[record]]
compound = "CS(=O)(=O)NCCNc1nc(Cn2nc(-c3ccc(Cl)cc3)n(C[C@H](O)C(F)(F)F)c2=O)nn1-c1ccccc1Cl"
measured_quantity = "ratio IC50 hV2/hV1a"
observed_result = 2.6

[[record]]
compound = "O=C1NCCC1Nc1nc(Cn2nc(-c3ccc(Cl)cc3)n(C[C@H](O)C(F)(F)F)c2=O)nn1-c1ccccc1Cl (mixture of isomers) [Example 16]"
measured_quantity = "ratio IC50 hV2/hV1a"
observed_result = 2.5

[[record]]
compound = "NC(=O)[C@H]1CCN(c2nc(Cn3nc(-c4ccc(Cl)cc4)n(C[C@H](O)C(F)(F)F)c3=O)nn2-c2ccccc2Cl)C1"
measured_quantity = "ratio IC50 hV2/hV1a"
observed_result = 6.6

[[record]]
compound = "O=C1CCC(Nc2nc(Cn3nc(-c4ccc(Cl)cc4)n(C[C@H](O)C(F)(F)F)c3=O)nn2-c2ccccc2Cl)CN1 (single isomer, unassigned) [Example 61]"
measured_quantity = "ratio IC50 hV2/hV1a"
observed_result = 7.4

[[record]]
compound = "C[C@H](O)CNc1nc(Cn2nc(-c3ccc(Cl)cc3)n(C[C@H](O)C(F)(F)F)c2=O)nn1-c1ccccc1Cl"
measured_quantity = "ratio IC50 hV2/hV1a"
observed_result = 4.5

[[record]]
compound = "O=C1CCC(Nc2nc(Cn3nc(-c4ccc(Cl)cc4)n(C[C@H](O)C(F)(F)F)c3=O)nn2-c2ccccc2Cl)CN1 (single isomer, unassigned) [Example 62]"
measured_quantity = "ratio IC50 hV2/hV1a"
observed_result = 7.3

